- System: Acinetobacter baumannii
Positions of bridges follow the written chain, without caps; N, C: chain ends. Non-standard residues stand in square brackets, D forms with d. Residues, ends and D or L forms follow the SMILES beside them. *: point of attachment. X21 = O=C(c1ccc(C(F)(F)F)c(Cl)c1)*; Octanoyl = CCCCCCCC(=O)*; Dab = NCC[C@H](N)C(=O)O; Abu = CC[C@H](N)C(=O)O; Dap = NC[C@H](N)C(=O)O; Hexanoyl = CCCCCC(=O)*
Minimum inhibitory concentration, Ab A ATCC 17978 values by entry
Please format your answer as a value with the unit trailing.

Past entries and their recorded results:
compound: CCCCCC(=O)N[C@@H](CCN)C(=O)N[C@H](C(=O)N[C@H](CO)C(=O)N[C@H]1CCNC(=O)[C@H]([C@@H](C)O)NC(=O)[C@H](CCN)NC(=O)[C@H](CCN)NC(=O)[C@H]([C@@H](C)O)NC(=O)[C@@H](CC(C)C)NC(=O)[C@H](CCN)NC1=O)[C@@H](C)O [Compound 8] (Hexanoyl-[Dab]T[dS][Dab][Dab][dL]T[Dab][Dab]T; lactam 4-C)
obs-value: 2 µg/mL
--
compound: CCCCCCCC(=O)N[C@@H](CCN)C(=O)N[C@H](C(=O)N[C@@H](CN)C(=O)N[C@H]1CCNC(=O)[C@H]([C@@H](C)O)NC(=O)[C@H](CN)NC(=O)[C@H](CCN)NC(=O)[C@H]([C@@H](C)O)NC(=O)[C@@H](CC(C)C)NC(=O)[C@H](CCN)NC1=O)[C@@H](C)O [Compound 50] (Octanoyl-[Dab]T[Dap][Dab][Dab][dL]T[Dab][Dap]T; lactam 4-C)
obs-value: 0.5 µg/mL

Field: next compound
Record lookup: for Acinetobacter baumannii, what Minimum inhibitory concentration, Ab A ATCC 17978 belongs to CC[C@@H]1NC(=O)[C@@H](CC(C)C)NC(=O)[C@H](CCN)NC(=O)[C@@H](NC(=O)[C@H](CN)NC(=O)[C@@H](NC(=O)[C@H](CCN)NC(=O)c2ccc(C(F)(F)F)c(Cl)c2)[C@@H](C)O)CCNC(=O)[C@H]([C@@H](C)O)NC(=O)[C@H](CCN)NC(=O)[C@H](CCN)NC1=O [Compound 115] (X21-[Dab]T[Dap][Dab][Dab][dL][Abu][Dab][Dab]T; lactam 4-C) ?
0.5 µg/mL

----------
- System: Acinetobacter baumannii
Positions of bridges follow the written chain, without caps; N, C: chain ends. Non-standard residues stand in square brackets, D forms with d. Residues, ends and D or L forms follow the SMILES beside them. *: point of attachment. Benzoyl(3-CF3) = O=C(c1cccc(C(F)(F)F)c1)*; Dab = NCC[C@H](N)C(=O)O; Abu = CC[C@H](N)C(=O)O; Dap = NC[C@H](N)C(=O)O; Hexanoyl = CCCCCC(=O)*
measured-property: Minimum inhibitory concentration, Ab A ATCC 17978 (mg/L)
Please give a number only; it is taken to be in mg/L.

compound: CC[C@@H]1NC(=O)[C@@H](CC(C)C)NC(=O)[C@H](CCN)NC(=O)[C@@H](NC(=O)[C@@H](CO)NC(=O)[C@@H](NC(=O)[C@H](CCN)NC(=O)c2cccc(C(F)(F)F)c2)[C@@H](C)O)CCNC(=O)[C@H]([C@@H](C)O)NC(=O)[C@H](CCN)NC(=O)[C@H](CCN)NC1=O [Compound 18] ({Benzoyl(3-CF3)}-[Dab]T[dS][Dab][Dab][dL][Abu][Dab][Dab]T; lactam 4-C)
obs-value: 0.5

Record lookup: for Acinetobacter baumannii, what Minimum inhibitory concentration, Ab A ATCC 17978 belongs to CCCCCC(=O)N[C@@H](CCN)C(=O)N[C@H](C(=O)N[C@@H](CN)C(=O)N[C@H]1CCNC(=O)[C@H]([C@@H](C)O)NC(=O)[C@H](CCN)NC(=O)[C@H](CCN)NC(=O)[C@H](C)NC(=O)[C@@H](CC(C)C)NC(=O)[C@H](CCN)NC1=O)[C@@H](C)O [Compound 67] (Hexanoyl-[Dab]T[Dap][Dab][Dab][dL]A[Dab][Dab]T; lactam 4-C) ?
2

----------
So I've got Minimum inhibitory concentration, Ab A ATCC 17978 readings for Acinetobacter baumannii, take a look.
Positions of bridges follow the written chain, without caps; N, C: chain ends. Non-standard residues stand in square brackets, D forms with d. Residues, ends and D or L forms follow the SMILES beside them. *: point of attachment. X28 = O=C(c1ccc(F)cc1Cl)*; Octanoyl = CCCCCCCC(=O)*; Dab = NCC[C@H](N)C(=O)O; Abu = CC[C@H](N)C(=O)O; Dap = NC[C@H](N)C(=O)O
Please give a number only; it is taken to be in µg/mL.

molecule: CC[C@@H]1NC(=O)[C@@H](CC(C)C)NC(=O)[C@H](CCN)NC(=O)[C@@H](NC(=O)[C@H](CN)NC(=O)[C@@H](NC(=O)[C@H](CCN)NC(=O)c2ccc(F)cc2Cl)[C@@H](C)O)CCNC(=O)[C@H]([C@@H](C)O)NC(=O)[C@H](CCN)NC(=O)[C@H](CCN)NC1=O [Compound 135] (X28-[Dab]T[Dap][Dab][Dab][dL][Abu][Dab][Dab]T; lactam 4-C)
tgt: Acinetobacter baumannii
obs-value: 1

Field: next molecule
Record lookup: for Acinetobacter baumannii, what Minimum inhibitory concentration, Ab A ATCC 17978 belongs to CCCCCCCC(=O)N[C@@H](CCN)C(=O)N[C@H](C(=O)N[C@@H](CCN)C(=O)N[C@H]1CCNC(=O)[C@H]([C@@H](C)O)NC(=O)[C@H](CCN)NC(=O)[C@H](CCN)NC(=O)[C@H](CO)NC(=O)[C@@H](CC(C)C)NC(=O)[C@H](CCN)NC1=O)[C@@H](C)O [Compound 25] (Octanoyl-[Dab]T[Dab][Dab][Dab][dL]S[Dab][Dab]T; lactam 4-C) ?
4

----------
- Test system: Enterobacter cloacae
Positions of bridges follow the written chain, without caps; N, C: chain ends. Non-standard residues stand in square brackets, D forms with d. Residues, ends and D or L forms follow the SMILES beside them. *: point of attachment. X13 = O=C(Cc1ccc(Cl)cc1Cl)*; dNle = CCCC[C@@H](N)C(=O)O; Octanoyl = CCCCCCCC(=O)*; Dab = NCC[C@H](N)C(=O)O; Dap = NC[C@H](N)C(=O)O
measured-property: Minimum inhibitory concentration, Ec FADDI-EC001

Past entries and their recorded results:
compound: CC(C)C[C@H]1NC(=O)[C@H](CCN)NC(=O)[C@@H](NC(=O)[C@H](CN)NC(=O)[C@@H](NC(=O)[C@H](CCN)NC(=O)Cc2ccc(Cl)cc2Cl)[C@@H](C)O)CCNC(=O)[C@H]([C@@H](C)O)NC(=O)[C@H](CCN)NC(=O)[C@H](CCN)NC(=O)[C@H]([C@@H](C)O)NC1=O [Compound 62] (X13-[Dab]T[Dap][Dab][Dab][dL]T[Dab][Dab]T; lactam 4-C)
tgt: Enterobacter cloacae
obs-value: <0.125 µg/mL
--
compound: CCCCCCCC(=O)N[C@@H](CCN)C(=O)N[C@H](C(=O)N[C@H](CO)C(=O)N[C@H]1CCNC(=O)[C@H]([C@@H](C)O)NC(=O)[C@H](CCN)NC(=O)[C@H](CCN)NC(=O)[C@H]([C@@H](C)O)NC(=O)[C@@H](CCCC)NC(=O)[C@H](CCN)NC1=O)[C@@H](C)O [Compound 7] (Octanoyl-[Dab]T[dS][Dab][Dab][dNle]T[Dab][Dab]T; lactam 4-C)
tgt: Enterobacter cloacae
obs-value: 0.25 µg/mL

Record lookup: for Enterobacter cloacae, what Minimum inhibitory concentration, Ec FADDI-EC001 belongs to CCCCCCCC(=O)N[C@@H](CCN)C(=O)N[C@H](C(=O)N[C@@H](CN)C(=O)N[C@H]1CCNC(=O)[C@H]([C@@H](C)O)NC(=O)[C@H](CN)NC(=O)[C@H](CCN)NC(=O)[C@H]([C@@H](C)O)NC(=O)[C@@H](CC(C)C)NC(=O)[C@H](CCN)NC1=O)[C@@H](C)O [Compound 50] (Octanoyl-[Dab]T[Dap][Dab][Dab][dL]T[Dab][Dap]T; lactam 4-C) ?
<0.125 µg/mL

----------
- Test system: Pseudomonas aeruginosa
- condition-summary: Pseudomonas aeruginosa FADDI-PA025; broth microdilution in CAMHB
Positions of bridges follow the written chain, without caps; N, C: chain ends. Non-standard residues stand in square brackets, D forms with d. Residues, ends and D or L forms follow the SMILES beside them. *: point of attachment. Benzoyl(4-Ph) = O=C(c1ccc(-c2ccccc2)cc1)*; X4 = O=C(c1ccc(Cl)c(Cl)c1)*; Dab = NCC[C@H](N)C(=O)O; Abu = CC[C@H](N)C(=O)O; Dap = NC[C@H](N)C(=O)O; PhAc = O=C(Cc1ccccc1)*
Minimum inhibitory concentration, Pa FADDI-PA025 values by entry
Please give a number only; it is taken to be in µg/mL.

compound: CC(C)C[C@H]1NC(=O)[C@H](CCN)NC(=O)[C@@H](NC(=O)[C@H](CCN)NC(=O)[C@@H](NC(=O)[C@H](CCN)NC(=O)c2ccc(-c3ccccc3)cc2)[C@@H](C)O)CCNC(=O)[C@H]([C@@H](C)O)NC(=O)[C@H](CCN)NC(=O)[C@H](CCN)NC(=O)[C@H]([C@@H](C)O)NC1=O [Compound 29] ({Benzoyl(4-Ph)}-[Dab]T[Dab][Dab][Dab][dL]T[Dab][Dab]T; lactam 4-C)
obs-value: 32
--
compound: CC[C@@H]1NC(=O)[C@@H](CC(C)C)NC(=O)[C@H](CCN)NC(=O)[C@@H](NC(=O)[C@H](CN)NC(=O)[C@@H](NC(=O)[C@H](CCN)NC(=O)Cc2ccccc2)[C@@H](C)O)CCNC(=O)[C@H]([C@@H](C)O)NC(=O)[C@H](CCN)NC(=O)[C@H](CCN)NC1=O [Compound 78] (PhAc-[Dab]T[Dap][Dab][Dab][dL][Abu][Dab][Dab]T; lactam 4-C)
obs-value: 4

Entry CC[C@@H]1NC(=O)[C@@H](CC(C)C)NC(=O)[C@H](CCN)NC(=O)[C@@H](NC(=O)[C@H](CN)NC(=O)[C@@H](NC(=O)[C@H](CCN)NC(=O)c2ccc(Cl)c(Cl)c2)[C@@H](C)O)CCNC(=O)[C@H]([C@@H](C)O)NC(=O)[C@H](CCN)NC(=O)[C@H](CCN)NC1=O [Compound 71] (X4-[Dab]T[Dap][Dab][Dab][dL][Abu][Dab][Dab]T; lactam 4-C) : reported Minimum inhibitory concentration, Pa FADDI-PA025 = ?
1
